System: Trypsin
Assay: Relative reaction rate of enzymatic hydrolysis of chromogenic substrates, trypsin (p-nitroaniline release at 405 nm)
Format: biochemical
Details: relative to reference substrate XIII
Counter-ions that a name gives are not always drawn. Where a SMILES comes first, the peptide text is derived from it. [ ]: non-standard residue; d: D form. The star is where a group is joined. pNA = O=[N+]([O-])c1ccc(N*)cc1; Pip = O=C(O)[C@@H]1CCCCN1; Bz = O=C(c1ccccc1)*
testReadout: Rel Reaction rates, Try (Trypsin)
Respond numerically, and do not add a unit to the figure.

Check out these entries, answers already filled in.
What Rel Reaction rates, Try (Trypsin) value was documented for this compound, CC(C)[C@H](NC(=O)c1ccccc1)C(=O)N1CCCC[C@H]1C(=O)N[C@@H](CCCNC(=N)N)C(=O)Nc1ccc([N+](=O)[O-])cc1 [Bz-Val-Pip-Arg-pNA] (Bz-Val-[Pip]-Arg-pNA) ?
45

Would you mind telling me what Rel Reaction rates, Try (Trypsin) value was observed for CC(C)[C@@H](N)C(=O)N1CCC[C@H]1C(=O)N[C@@H](CCCNC(=N)N)C(=O)Nc1ccc([N+](=O)[O-])cc1 [XIII, H-D-Val-Pro-Arg-pNA . 2 HCl] (H-[dV]-Pro-Arg-pNA) ?
100

I would be grateful if you could share the reported Rel Reaction rates, Try (Trypsin) for CC(C)[C@H](NC(=O)c1ccccc1)C(=O)N1CCC[C@H]1C(=O)N[C@@H](CCCNC(=N)N)C(=O)Nc1ccc([N+](=O)[O-])cc1 [Bz-Val-Pro-Arg-pNA] (Bz-Val-Pro-Arg-pNA) .
60

If you can, please state the reported Rel Reaction rates, Try (Trypsin) value of CC(C)[C@H](N)C(=O)N1CCCC[C@H]1C(=O)N[C@@H](CCCNC(=N)N)C(=O)Nc1ccc([N+](=O)[O-])cc1 [H-Val-Pip-Arg-pNA] (H-Val-[Pip]-Arg-pNA) .
35

# next compound below
If you can, please state the reported Rel Reaction rates, Try (Trypsin) value of CC(C)[C@@H](N)C(=O)N1CCCC[C@H]1C(=O)N[C@@H](CCCNC(=N)N)C(=O)Nc1ccc([N+](=O)[O-])cc1 [XIV, H-D-Val-Pip-Arg-pNA . 2 HCl] (H-[dV]-[Pip]-Arg-pNA) .
70
